- target_of_assay: benzodiazepine receptors
- protocol_text: Affinity for benzodiazepine receptors: inhibition of specific binding of [3H]flunitrazepam (WASTEK et al., modified)
- Set-up: species or system rats
- reported_conditions: 50% inhibition of specific binding of [3H]flunitrazepam, rat brain membranes
pIC50: −log10 of the molar value.
quantity: pIC50

[[record]]
compound = "CN1C(=O)CN=C(c2ccccc2)c2cc(Cl)ccc21 [Diazepam, diazepam, reference compound]"
quantity = "pIC50"
measurement = 8.00

[[record]]
compound = "CCOC(=O)c1cnc2ccc(Cl)cc2c1NCC(=O)N(C)C1CCCCC1"
quantity = "pIC50"
measurement = 7.00

[[record]]
compound = "CCCN(CCC)C(=O)CNc1c(C(=O)OCC)cnc2ccc(C)cc12.Cl [Derivative 13, hydrochloride]"
quantity = "pIC50"
measurement = 7.60

[[record]]
compound = "CCOC(=O)c1cnc2ccc(Cl)cc2c1NCC(=O)N1CCOCC1"
quantity = "pIC50"
measurement = 6.22

[[record]]
compound = "CCCN(CCC)C(=O)CNc1c(C(=O)OCC)cnc2ccc([N+](=O)[O-])cc12"
quantity = "pIC50"
measurement = 7.59

[[record]]
compound = "CCCN(CCC)C(=O)CN(C)c1c(C(=O)OCc2ccccc2)cnc2ccc(C)cc12"
quantity = "pIC50"
measurement = 6.20

[[record]]
compound = "CCOC(=O)c1cnc2ccc(Cl)cc2c1NCC(=O)NC"
quantity = "pIC50"
measurement = 6.36

[[record]]
compound = "CCOC(=O)c1cnc2ccc(C3CCCCC3)cc2c1NCC(=O)N(CC)CC"
quantity = "pIC50"
measurement = 6.05

[[record]]
compound = "CCN(CC)C(=O)CNc1c(C(=O)OC(C)C)cnc2ccc(Cl)cc12"
quantity = "pIC50"
measurement = 7.16

[[record]]
compound = "O=C(O)c1cnc2ccc(Cl)cc2c1NCC(=O)N1CCCCCC1"
quantity = "pIC50"
measurement = 8.15

[[record]]
compound = "CCOC(=O)c1cnc2ccc(Cl)cc2c1NCC(=O)N(CC(C)C)CC(C)C"
quantity = "pIC50"
measurement = 7.55

[[record]]
compound = "CCOC(=O)c1cnc2ccc(Cl)cc2c1NCC(=O)N(C(C)C)C(C)C"
quantity = "pIC50"
measurement = 7.32

[[record]]
compound = "CCCNC(=O)c1cnc2ccc(Cl)cc2c1NCC(=O)N(CC)CC"
quantity = "pIC50"
measurement = 6.82

[[record]]
compound = "CCCCc1ccc2ncc(C(=O)OCC)c(NCC(=O)N(CC)CC)c2c1"
quantity = "pIC50"
measurement = 6.81

[[record]]
compound = "CCCCOC(=O)c1cnc2ccc(Cl)cc2c1NCC(=O)N(CC)CC"
quantity = "pIC50"
measurement = 7.21

[[record]]
compound = "CCCN(CCC)C(=O)CNc1c(C(=O)OCC)cnc2ccc(OCC)cc12"
quantity = "pIC50"
measurement = 7.42

[[record]]
compound = "CCOC(=O)c1cnc2ccc(Cl)cc2c1NCC(=O)N(C)c1ccc(Cl)cc1"
quantity = "pIC50"
measurement = 6.60

[[record]]
compound = "CCCN(CCC)C(=O)CNc1c(C(=O)OCC)cnc2ccc(Cl)cc12"
quantity = "pIC50"
measurement = 7.80

